Item-by-item account of Total Cell Count
# System: U2OS
# protocol notes: Multiplex assay against U2OS
# Type: toxicity, cell-based
# experimental conditions: human, 48 h, 10 µM, compound concentration 10 uM, replicate 1
reported endpoint: Total Cell Count

molecule="CC(C)c1noc(N2CCC(COc3ccc(-c4ccc(S(C)(=O)=O)cc4)nc3)CC2)n1 [GSK-1292263]" measured_on=U2OS readout_value=354
molecule=Cc1cccc(NC(=O)CN2CCC(c3ccccn3)CC2)c1.Cl.Cl measured_on=U2OS readout_value=303
molecule="CCCCCC(O)/C=C/[C@H]1C(=O)CC(O)C1C/C=C\\CCCC(=O)O (stereo partly specified)" measured_on=U2OS readout_value=302
molecule="CC(=O)Nc1cccc2c1c(Sc1ccc(Cl)cc1)c(C)n2CC(=O)O [AZD1981]" measured_on=U2OS readout_value=366
molecule=CCCOc1ccc2[nH]cc(C3=CCNCC3)c2n1.Cl measured_on=U2OS readout_value=423
molecule=O=C(CCCc1ccccc1)Nc1nc2ccccc2c(=O)s1 measured_on=U2OS readout_value=427
molecule="O=C(NCCN1CCC(n2c(=O)[nH]c3cc(Cl)ccc32)CC1)c1ccc(F)cc1 [HALOPEMIDE]" measured_on=U2OS readout_value=382
molecule="CCCCC1=NC2(CCCC2)C(=O)N1Cc1ccc(-c2ccccc2-c2nnn[nH]2)cc1 [IRBESARTAN]" measured_on=U2OS readout_value=419
molecule=Cc1cnc(-c2cc(N3CCN(C(=O)CCS(C)(=O)=O)CC3)ncc2Cl)c(C)c1 measured_on=U2OS readout_value=485
molecule=NCCc1cn(S(=O)(=O)c2c(Cl)nc3sccn23)c2ccccc12.O=C(O)C(=O)O measured_on=U2OS readout_value=241
molecule=Cc1onc(-c2ccccc2Cl)c1C(=O)N(C)c1ccc(Cl)cc1 measured_on=U2OS readout_value=413

###

# Tested on: HEK-293T
# protocol notes: Multiplex assay against HEK293T
# Type: toxicity, cell-based
# experimental conditions: human, 12 h, 1 µM, compound concentration 1 uM, replicate 1
Collected Population Apoptotic (%) values appear next to each entry.
reported endpoint: Population Apoptotic (%)

compound=CC(/C=C1\SC(=S)N(CCCC(=O)Nc2ccc(C(=O)O)c(O)c2)C1=O)=C\c1ccccc1 readout_value=34%
compound="CCCCCC(O)/C=C/[C@H]1C(=O)CC(O)C1C/C=C\\CCCC(=O)O (stereo partly drawn)" readout_value=29%
compound=Cc1onc(-c2ccccc2Cl)c1C(=O)N(C)c1ccc(Cl)cc1 readout_value=35%
compound="Cc1sc2c(c1C)C(c1ccc(Cl)cc1)=N[C@@H](CC(=O)NCCCCCCCCNC(=O)COc1cccc3c1C(=O)N(C1CCC(=O)NC1=O)C3=O)c1nnc(C)n1-2 (stereo partly drawn)" readout_value=66%
compound=CC(C)c1noc(N2CCC(COc3ccc(-c4ccc(S(C)(=O)=O)cc4)nc3)CC2)n1 readout_value=37%
compound=Cc1noc(-c2ccc(-c3ccc(CC(=O)O)cc3)cc2)c1NC(=O)O[C@H](C)c1ccccc1Cl readout_value=29%
compound=NCCc1cn(S(=O)(=O)c2c(Cl)nc3sccn23)c2ccccc12.O=C(O)C(=O)O readout_value=37%
compound=C[C@H](N)COC(=O)[C@@H](CCCCN)NC(=O)Cc1c(-c2ccc3ccccc3c2)[nH]c2c1ccc1ccccc12 readout_value=22%
compound=CC(C)COc1ccc(CNC(=O)N(Cc2ccc(F)cc2)C2CCN(C)CC2)cc1 readout_value=39%
compound=Cc1cccc(NC(=O)CN2CCC(c3ccccn3)CC2)c1.Cl.Cl readout_value=34%
compound=COc1cccc2c1c(NS(=O)(=O)c1ccc(Cl)s1)nn2Cc1cccc(CNC(=O)C(C)(C)O)c1 readout_value=31%
compound=N#Cc1c(Oc2cccc(OS(=O)(=O)CCCC(F)(F)F)c2)cccc1C(F)(F)F readout_value=35%
compound=CN(C)C(=O)Cn1cc(-c2ccc(-c3cncc4ccccc34)cc2)cn1 readout_value=52%
compound=CC[C@@H](C)Nc1nc(C)nc2c(-c3ccc(OC)nc3C)c(C)nn12 readout_value=33%
compound="Br.CS(=O)(=O)Nc1c(O)ccc2c1CCCC2C1=NCCN1 (stereo not drawn)" readout_value=40%
compound=CN[C@@H](C)C(=O)N[C@H](C(=O)N1CCC[C@H]1C(=O)Nc1snnc1-c1ccccc1)C1CCCCC1 readout_value=31%
compound="Cl.NCCc1ccc(O)c(O)c1 [DOPAMINE HYDROCHLORIDE]" readout_value=31%
compound=CCCCC(=O)N(Cc1ccc(-c2ccccc2-c2nnn[nH]2)cc1)[C@H](C(=O)O)C(C)C readout_value=44%

###

# System: Fibroblast
# protocol notes: Multiplex assay against human fibroblast
# Assay type: toxicity, cell-based
# experimental conditions: 12 h, 10 µM, compound concentration 10 uM, replicate 1
reported endpoint: Population Hoechst High Intensity Objects (%)

compound="CC(=O)Nc1cccc2c1c(Sc1ccc(Cl)cc1)c(C)n2CC(=O)O [AZD1981]" measured_on=Fibroblast readout_value=3
compound=C[C@H](N)COC(=O)[C@@H](CCCCN)NC(=O)Cc1c(-c2ccc3ccccc3c2)[nH]c2c1ccc1ccccc12 measured_on=Fibroblast readout_value=2
compound=O=C1[C@H](Cc2ccc(O)cc2)N2C(=O)CCN(C(=O)NCc3ccccc3)[C@H]2CN1Cc1cccc2ccccc12 measured_on=Fibroblast readout_value=8
compound=COc1ccccc1N1CCN(C[C@@H](C(=O)NC(C)(C)C)c2ccccc2)CC1.Cl.Cl measured_on=Fibroblast readout_value=5

###

# System: Fibroblast
# protocol notes: Multiplex assay against human fibroblast
# Type: toxicity, cell-based
# experimental conditions: 24 h, 10 µM, compound concentration 10 uM, replicate 1
# Population Membrane Permeable-Phenotype (%) annotations
reported endpoint: Population Membrane Permeable-Phenotype (%)

molecule=C[C@H](N)COC(=O)[C@@H](CCCCN)NC(=O)Cc1c(-c2ccc3ccccc3c2)[nH]c2c1ccc1ccccc12 readout_value=0
molecule=CN1CCN(c2cc(-c3ccccc3)nc(N)n2)CC1 readout_value=1
molecule="Br.CS(=O)(=O)Nc1c(O)ccc2c1CCCC2C1=NCCN1 (centres undefined)" readout_value=0
molecule=CN[C@@H](C)C(=O)N[C@H](C(=O)N1CCC[C@H]1C(=O)Nc1snnc1-c1ccccc1)C1CCCCC1 readout_value=0
molecule="Cl.NCCc1ccc(O)c(O)c1 [DOPAMINE HYDROCHLORIDE]" readout_value=1
molecule=CC(C)(C)c1cc(NC(=O)Nc2ccc(-c3cn4c(n3)sc3cc(OCCN5CCOCC5)ccc34)cc2)no1 readout_value=0
molecule=O=C(CCCc1ccccc1)Nc1nc2ccccc2c(=O)s1 readout_value=0
molecule=N#Cc1c(Oc2cccc(OS(=O)(=O)CCCC(F)(F)F)c2)cccc1C(F)(F)F readout_value=4
molecule=NCCc1cn(S(=O)(=O)c2c(Cl)nc3sccn23)c2ccccc12.O=C(O)C(=O)O readout_value=0

###

Listed molecules paired with reported Population Apoptotic (%)
# System: Fibroblast
# protocol notes: Multiplex assay against human fibroblast
# Assay type: toxicity, cell-based
# experimental conditions: 48 h, 1 µM, compound concentration 1 uM, replicate 1
reported endpoint: Population Apoptotic (%)

molecule="CC(=O)Nc1cccc2c1c(Sc1ccc(Cl)cc1)c(C)n2CC(=O)O [AZD1981]" measured_on=Fibroblast unit_descriptor=% readout_value=54
molecule="CCCCC1=NC2(CCCC2)C(=O)N1Cc1ccc(-c2ccccc2-c2nnn[nH]2)cc1 [IRBESARTAN]" measured_on=Fibroblast unit_descriptor=% readout_value=60
molecule=C[C@H](N)COC(=O)[C@@H](CCCCN)NC(=O)Cc1c(-c2ccc3ccccc3c2)[nH]c2c1ccc1ccccc12 measured_on=Fibroblast unit_descriptor=% readout_value=72
molecule=O=C(CCCc1ccccc1)Nc1nc2ccccc2c(=O)s1 measured_on=Fibroblast unit_descriptor=% readout_value=59
molecule=N#Cc1c(Oc2cccc(OS(=O)(=O)CCCC(F)(F)F)c2)cccc1C(F)(F)F measured_on=Fibroblast unit_descriptor=% readout_value=60
molecule="CC(C)COc1ccc(CNC(=O)N(Cc2ccc(F)cc2)C2CCN(C)CC2)cc1 [PIMAVANSERIN]" measured_on=Fibroblast unit_descriptor=% readout_value=88
molecule="COC[C@@H](c1ccc(C(F)(F)F)cc1)N1CCN(C2(C)CCN(C(=O)c3c(C)ncnc3C)CC2)C[C@@H]1C.O=C(O)/C=C\\C(=O)O [VICRIVIROC MALEATE]" measured_on=Fibroblast unit_descriptor=% readout_value=59
molecule="Cl.N=C(N)NC(=O)Cc1c(Cl)cccc1Cl [GUANFACINE HYDROCHLORIDE]" measured_on=Fibroblast unit_descriptor=% readout_value=61

###

# System: Fibroblast
# protocol notes: Multiplex assay against human fibroblast
# Format: toxicity, cell-based
# experimental conditions: 24 h, 1 µM, compound concentration 1 uM, replicate 2
reported endpoint: Population Mitochondria Different-Phenotype (%)

molecule=CN1CCN(c2cc(-c3ccccc3)nc(N)n2)CC1 readout_value=8
molecule=C[C@H](N)COC(=O)[C@@H](CCCCN)NC(=O)Cc1c(-c2ccc3ccccc3c2)[nH]c2c1ccc1ccccc12 readout_value=7
molecule="Cl.N=C(N)NC(=O)Cc1c(Cl)cccc1Cl [GUANFACINE HYDROCHLORIDE]" readout_value=8
molecule=CN[C@@H](C)C(=O)N[C@H](C(=O)N1CCC[C@H]1C(=O)Nc1snnc1-c1ccccc1)C1CCCCC1 readout_value=11
molecule=CCc1cc2cc(NS(=O)(=O)c3ccc(C#N)cc3)ccc2n(CC)c1=O readout_value=8
molecule="COC[C@@H](c1ccc(C(F)(F)F)cc1)N1CCN(C2(C)CCN(C(=O)c3c(C)ncnc3C)CC2)C[C@@H]1C.O=C(O)/C=C\\C(=O)O [VICRIVIROC MALEATE]" readout_value=20
molecule="O=C(NCCN1CCC(n2c(=O)[nH]c3cc(Cl)ccc32)CC1)c1ccc(F)cc1 [HALOPEMIDE]" readout_value=8
molecule=Cc1onc(-c2ccccc2Cl)c1C(=O)N(C)c1ccc(Cl)cc1 readout_value=4
